systemTested: porcine trypsin (porcine, UniProt P00761 9-231)
Sequence (P00761 9-231 limits assumed): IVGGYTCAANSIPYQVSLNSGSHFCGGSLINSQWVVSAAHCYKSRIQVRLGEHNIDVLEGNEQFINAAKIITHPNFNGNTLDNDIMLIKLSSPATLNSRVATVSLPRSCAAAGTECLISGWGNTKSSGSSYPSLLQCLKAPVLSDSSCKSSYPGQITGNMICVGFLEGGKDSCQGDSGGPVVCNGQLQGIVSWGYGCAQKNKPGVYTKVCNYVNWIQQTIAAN
assayNotes: chromogenic (S-2251) amidolytic inhibition assay, trypsin 50 nM
Procedure: Trypsin and plasmin inhibition assays were performed as described elsewhere (Petersen et al., Biochemistry, 35:266-272, 1996). Briefly, trypsin and plasmin were incubated with various concentrations of inhibitor preparations for 15 minutes at 37° C. in a 96-well microtitration plate. The chromogenic substrate S-2251 was then added and residual amidolytic activity was measured in a Molecular Devices UVₘₐₓ kinetic microplate reader.
// reported Ki for each item listed
// note: answer is a bare numeric in nM

R29K KD1 (other, Point mutant of His-tagged KD1, KD1 numbering; also called R29K (R20K); not shown: N-terminal decahistidine-tag leader and enterokinase cleavage site from pET19b) DAAQEPTGNNAEICLLPLDYGPCRALLLKYYYDRYTQSCRQFLYGGCEGNANNFYTWEACDDACWRIEKVPKV	20
D19A KD1 (other, Point mutant of His-tagged KD1, KD1 numbering; also called D19A (D10A); not shown: N-terminal decahistidine-tag leader and enterokinase cleavage site from pET19b) DAAQEPTGNNAEICLLPLAYGPCRALLLRYYYDRYTQSCRQFLYGGCEGNANNFYTWEACDDACWRIEKVPKV	15
Y20A KD1 (other, Point mutant of His-tagged KD1, KD1 numbering; also called Y20A (Y11A); not shown: N-terminal decahistidine-tag leader and enterokinase cleavage site from pET19b) DAAQEPTGNNAEICLLPLDAGPCRALLLRYYYDRYTQSCRQFLYGGCEGNANNFYTWEACDDACWRIEKVPKV	8

### Prompt Entry recombinant human tissue factor pathway inhibitor-2 (TFPI-2), full-length (other, Eukaryotically expressed recombinant full-length protein, described as a 213 amino acid polypeptide and prepared by a published method (Sprecher et al.); also called full-length TFPI-2; intact TFPI-2) DAAQEPTGNNAEICLLPLDYGPCRALLLRYYYDRYTQSCRQFLYGGCEGNANNFYTWEACDDACWRIEKVPKVCRLQVSVDDQCEGSTEKYFFNLSSMTCEKFFSGGCHRNRIENRFPDEATCMGFCAPKKIPSFCYSPKDEGLCSANVTRYYFNPRYRTCDAFTYTGCGGNDNNFVSREDCKRACAKALKKKKKMPKLRFASRIRKIRKKQF has what Ki?
### Response 21
